Reference source for all entries: patent US12473262B2

# target.or.system: aryl hydrocarbon receptor (AhR) (Mus musculus (Mouse), UniProt P30561)
# Sequence (P30561 10-805): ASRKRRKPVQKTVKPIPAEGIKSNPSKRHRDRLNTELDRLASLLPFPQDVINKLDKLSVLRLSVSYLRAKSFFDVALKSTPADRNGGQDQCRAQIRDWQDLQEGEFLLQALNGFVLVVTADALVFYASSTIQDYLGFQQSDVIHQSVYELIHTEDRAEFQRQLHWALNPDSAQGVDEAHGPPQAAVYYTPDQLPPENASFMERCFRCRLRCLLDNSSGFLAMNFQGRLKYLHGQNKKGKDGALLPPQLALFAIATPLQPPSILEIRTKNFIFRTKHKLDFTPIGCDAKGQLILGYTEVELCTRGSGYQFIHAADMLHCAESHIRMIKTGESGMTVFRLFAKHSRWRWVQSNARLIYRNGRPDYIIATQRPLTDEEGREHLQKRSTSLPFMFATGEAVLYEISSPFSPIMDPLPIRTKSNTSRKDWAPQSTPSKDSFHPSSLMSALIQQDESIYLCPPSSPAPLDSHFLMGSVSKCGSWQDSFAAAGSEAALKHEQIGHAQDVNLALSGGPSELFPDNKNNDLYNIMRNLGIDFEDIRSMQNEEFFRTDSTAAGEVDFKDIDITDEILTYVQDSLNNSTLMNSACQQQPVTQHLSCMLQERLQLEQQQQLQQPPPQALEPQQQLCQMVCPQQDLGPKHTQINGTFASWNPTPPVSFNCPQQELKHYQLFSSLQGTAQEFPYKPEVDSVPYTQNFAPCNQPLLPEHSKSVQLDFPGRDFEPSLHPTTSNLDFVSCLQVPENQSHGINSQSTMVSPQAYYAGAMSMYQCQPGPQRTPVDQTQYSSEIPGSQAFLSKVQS
# Sequence (P53762 whole entry partner): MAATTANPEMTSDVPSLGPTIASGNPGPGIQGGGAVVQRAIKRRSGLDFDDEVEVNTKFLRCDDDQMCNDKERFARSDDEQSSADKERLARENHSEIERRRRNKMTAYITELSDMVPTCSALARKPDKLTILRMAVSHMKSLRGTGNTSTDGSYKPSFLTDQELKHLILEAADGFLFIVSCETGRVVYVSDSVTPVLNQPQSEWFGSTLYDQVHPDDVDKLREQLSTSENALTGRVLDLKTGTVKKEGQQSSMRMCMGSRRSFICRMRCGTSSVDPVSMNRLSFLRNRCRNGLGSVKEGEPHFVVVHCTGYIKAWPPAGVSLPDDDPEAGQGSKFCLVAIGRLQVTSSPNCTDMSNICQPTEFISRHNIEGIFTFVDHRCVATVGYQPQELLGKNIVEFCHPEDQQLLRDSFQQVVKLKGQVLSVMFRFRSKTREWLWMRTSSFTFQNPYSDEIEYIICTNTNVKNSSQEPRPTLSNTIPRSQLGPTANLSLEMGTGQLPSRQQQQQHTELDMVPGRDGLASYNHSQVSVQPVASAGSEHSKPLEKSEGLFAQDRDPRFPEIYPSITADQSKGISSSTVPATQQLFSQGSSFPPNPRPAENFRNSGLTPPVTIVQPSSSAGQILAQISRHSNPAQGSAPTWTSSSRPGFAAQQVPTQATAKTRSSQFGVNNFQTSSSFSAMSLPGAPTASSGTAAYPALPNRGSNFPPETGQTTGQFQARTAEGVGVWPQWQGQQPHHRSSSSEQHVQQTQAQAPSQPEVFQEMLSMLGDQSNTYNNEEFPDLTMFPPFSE
# protocol.details: AhR ligand screening: AhRE-luciferase reporter in transfected Hepa1 cells
# Format: cell-based
# experimental.setup: fold change of luciferase expression at 10 uM test compound relative to vehicle (0.1% DMSO)
# Excerpt: The AhR is a ligand-activated transcription factor that dimerizes with ARNT to regulate gene expression, and genes that are regulated by AhR ligands have AhR response elements (AhRE) in their promotor regions. Briefly, Hepa1 cells were transfected with a reporter construct consisting of AhRE linked to luciferase. […] Data were expressed as fold induction of luciferase relative to vehicle (0.1% DMSO) treated cells.
result.type: Fold @ 10 uM (fold)
Value expressed in fold; do not type the unit.

[[record]]
compound = "O=S(=O)(c1ccc(C(F)(F)F)cc1)n1c(-c2cccc3ccccc23)nc2ccc(Cl)cc21"
result_type = "Fold @ 10 uM"
measure_unit = "fold"
endpoint_value = 19

[[record]]
compound = "Cc1ccc(S(=O)(=O)n2c(-c3cccc4ccccc34)nc3ccc(Cl)cc32)cc1"
result_type = "Fold @ 10 uM"
measure_unit = "fold"
endpoint_value = 35

[[record]]
compound = "O=C(c1ccccc1)c1c[nH]c2ccc(Cl)cc12"
result_type = "Fold @ 10 uM"
measure_unit = "fold"
endpoint_value = 15

[[record]]
compound = "CC1(O)c2cccc3cccc(c23)-c2nc3ccccc3n21 (centres unmarked)"
result_type = "Fold @ 10 uM"
measure_unit = "fold"
endpoint_value = 20


Using known records, supply Fold @ 10 uM for `O=C(C1CCCCC1)n1c(-c2cccc3ccccc23)nc2ccc(Cl)cc21`
15

Using known records, supply Fold @ 10 uM for `O=C(c1ccccc1)n1c(-c2cccc3ccccc23)nc2cc(Br)ccc21`
34

Using known records, supply Fold @ 10 uM for `O=C(c1ccc2c(c1)nc(-c1cccc3ccccc13)n2S(=O)(=O)c1cccc(F)c1)N1CCCCC1`
2

Using known records, supply Fold @ 10 uM for `O=C(C1CCCCC1)n1c(-c2cc3ccccc3o2)nc2cc(Cl)ccc21`
80

Using known records, supply Fold @ 10 uM for `O=C(c1ccc2c(c1)nc(-c1cccc3ccccc13)n2S(=O)(=O)c1cccc(F)c1)N1CCOCC1`
1

Using known records, supply Fold @ 10 uM for `O=C(c1ccccc1)n1c(-c2cccc3c2CCCC3)nc2cc(Cl)ccc21`
6

Using known records, supply Fold @ 10 uM for `Cn1ncc2c(-c3nc4cc(Cl)ccc4n3C(=O)c3ccc(F)c(F)c3)cccc21`
88

Using known records, supply Fold @ 10 uM for `O=C(c1ccccc1)n1c(-c2ccc(F)cc2)nc2ccc(Cl)cc21`
16

Using known records, supply Fold @ 10 uM for `O=C(c1ccc(F)c(F)c1)n1c(-c2ccc(F)c3ccccc23)nc2cc(Cl)ccc21`
19

----------
# target.or.system: aryl hydrocarbon receptor (AhR) (Mus musculus (Mouse), UniProt P30561)
# protocol.details: AhR ligand screening: AhRE-luciferase reporter in transfected Hepa1 cells
# Assay type: cell-based
# experimental.setup: fold change of luciferase expression at 100 nM test compound relative to vehicle (0.1% DMSO)
result.type: Fold @ 100 nM (fold)
Value expressed in fold; do not type the unit.

Sample records with Fold @ 100 nM:
[[record]]
compound = "Fc1cccc(F)c1Cn1c(-c2cccc3ccccc23)nc2cc(Cl)ccc21 [Compound 871]"
target_or_system = "aryl hydrocarbon receptor (AhR) (Mus musculus (Mouse), UniProt P30561)"
result_type = "Fold @ 100 nM"
measure_unit = "fold"
endpoint_value = 1

[[record]]
compound = "O=C1c2ccccc2-c2nc3ccc(Cl)cc3n21 [Compound 488]"
target_or_system = "aryl hydrocarbon receptor (AhR) (Mus musculus (Mouse), UniProt P30561)"
result_type = "Fold @ 100 nM"
measure_unit = "fold"
endpoint_value = 1


Using known records, supply Fold @ 100 nM for O=C(c1ccc(F)c(F)c1)n1c(-c2cccc(-c3ccccc3)c2)nc2cc(Cl)ccc21 [Compound 771]
1

Using known records, supply Fold @ 100 nM for Fc1ccc(Cn2c(-c3cccc4ccccc34)nc3ccc(Cl)cc32)cc1F [Compound 888]
1

Using known records, supply Fold @ 100 nM for O=C(c1ccccc1)n1c(-c2cccc3ccccc23)nc2cc(OC(F)(F)F)ccc21 [Compound 703]
22

Using known records, supply Fold @ 100 nM for O=C(c1ccc(F)c(F)c1)n1c(-c2ccc(Cl)c3ccccc23)nc2ccc(Cl)cc21 [Compound 870]
9

Using known records, supply Fold @ 100 nM for O=C(c1ccccc1)n1c(-c2cccc3ccccc23)nc2cc(Br)ccc21 [Compound 691]
26

Using known records, supply Fold @ 100 nM for O=C(c1ccc(F)cc1F)n1c(-c2cccc3ccccc23)nc2cc(Cl)ccc21 [Compound 694]
32

----------
# target.or.system: CYP-1A2 (Homo sapiens (Human), UniProt P05177)
# Sequence (P05177 whole entry): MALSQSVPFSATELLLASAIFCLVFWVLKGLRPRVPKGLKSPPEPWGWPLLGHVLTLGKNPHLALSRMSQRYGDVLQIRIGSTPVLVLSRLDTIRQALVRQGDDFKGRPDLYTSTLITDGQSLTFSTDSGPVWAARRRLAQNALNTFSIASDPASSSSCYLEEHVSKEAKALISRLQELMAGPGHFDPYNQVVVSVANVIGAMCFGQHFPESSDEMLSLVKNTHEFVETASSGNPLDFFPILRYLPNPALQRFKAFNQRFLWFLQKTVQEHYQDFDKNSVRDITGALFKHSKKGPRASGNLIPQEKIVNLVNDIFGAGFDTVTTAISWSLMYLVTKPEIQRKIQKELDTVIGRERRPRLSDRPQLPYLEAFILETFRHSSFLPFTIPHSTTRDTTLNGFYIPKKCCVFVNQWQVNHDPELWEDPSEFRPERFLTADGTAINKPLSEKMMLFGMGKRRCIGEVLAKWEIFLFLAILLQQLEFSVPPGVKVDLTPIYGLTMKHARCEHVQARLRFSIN
# protocol.details: CYP panel profile: P450 inhibition, CYP-1A2
# Format: in vitro ADME
# experimental.setup: human liver microsomes; read-out: CYP-1A2 IC50
result.type: pIC50
Just the number, please; pIC50 means minus log10 of the concentration in mol/L.

Sample records with pIC50:
[[record]]
compound = "O=C(c1ccc(F)c(F)c1)n1c(-c2ccc(-c3ccccc3)cc2)nc2ccc(Cl)cc21"
target_or_system = "CYP-1A2 (Homo sapiens (Human), UniProt P05177)"
endpoint_value = 5.33

[[record]]
compound = "O=C(c1ccccc1)n1c(-c2cccc3ccccc23)nc2cc(OC(F)(F)F)ccc21"
target_or_system = "CYP-1A2 (Homo sapiens (Human), UniProt P05177)"
endpoint_value = 6.10

[[record]]
compound = "O=C(C1CCCCC1)n1c(-c2cccc3ccccc23)nc2ccc(Cl)cc21"
target_or_system = "CYP-1A2 (Homo sapiens (Human), UniProt P05177)"
endpoint_value = 6.22

[[record]]
compound = "O=C(C1CC1)n1c(-c2cccc3ccccc23)cc2cc(Cl)ccc21"
target_or_system = "CYP-1A2 (Homo sapiens (Human), UniProt P05177)"
endpoint_value = 5.15

[[record]]
compound = "COc1ccc(C(=O)n2c(-c3cccc4ccccc34)nc3cc(Cl)ccc32)cc1"
target_or_system = "CYP-1A2 (Homo sapiens (Human), UniProt P05177)"
endpoint_value = 5.41


Using known records, supply pIC50 for O=C(c1ccc(F)c(F)c1)n1c(-c2cccc3ccccc23)nc2cc(Cl)ccc21 [Compound 530]
6.30

Using known records, supply pIC50 for `COC(=O)c1ccc2nc(-c3cccc4ccccc34)n(C(=O)c3ccc(F)c(F)c3)c2c1`
4.82

Using known records, supply pIC50 for `O=C(c1c(F)cc(Br)cc1F)n1c(-c2cccc3ccccc23)nc2cc(Cl)ccc21`
6.52

----------
# protocol.details: Liver microsomal stability, rat
# experimental.setup: rat, liver microsomes, pH 7.4
result.type: microsomal CLint at 1 μM (µL/min/mg)
Value expressed in µL/min/mg; do not type the unit.

Sample records with microsomal CLint at 1 μM:
[[record]]
compound = "O=C(c1ccc(Cl)cc1Cl)c1c[nH]c2ccc(Cl)cc12 [Compound 890]"
measure_unit = "µL/min/mg"
endpoint_value = 47.8

[[record]]
compound = "O=S(=O)(c1ccc(C(F)(F)F)cc1)n1c(-c2cccc3ccccc23)nc2cc(Cl)ccc21 [Compound 781]"
measure_unit = "µL/min/mg"
endpoint_value = 56.8

[[record]]
compound = "O=C(C1CC1)n1c(-c2cccc3ccccc23)cc2cc(Cl)ccc21 [Compound 972]"
measure_unit = "µL/min/mg"
endpoint_value = 105

[[record]]
compound = "O=S(=O)(c1ccc2ccccc2c1)n1c(-c2cccc3ccccc23)nc2ccc(Cl)cc21 [Compound 786]"
measure_unit = "µL/min/mg"
endpoint_value = 93.8

[[record]]
compound = "COc1ccc(C(=O)c2c[nH]c3ccc(Cl)cc23)cc1 [Compound 894]"
measure_unit = "µL/min/mg"
endpoint_value = 32.3

[[record]]
compound = "O=C(c1cccc(Cl)c1Cl)c1c[nH]c2ccc(Cl)cc12 [Compound 889]"
measure_unit = "µL/min/mg"
endpoint_value = 54.2

[[record]]
compound = "O=S(=O)(c1ccc2ccccc2c1)n1c(-c2cccc3ccccc23)nc2cc(Cl)ccc21 [Compound 785]"
measure_unit = "µL/min/mg"
endpoint_value = 37.9

[[record]]
compound = "O=C(c1ccccc1)c1c[nH]c2ccc(Cl)cc12 [Compound 892]"
measure_unit = "µL/min/mg"
endpoint_value = 24.3

[[record]]
compound = "CCc1ccc(S(=O)(=O)n2c(-c3cccc4ccccc34)nc3ccc(Cl)cc32)cc1 [Compound 776]"
measure_unit = "µL/min/mg"
endpoint_value = 84.9

[[record]]
compound = "O=C(c1ccc(F)c(F)c1)n1c(-c2cccc3ccccc23)cc2cc(Cl)ccc21 [Compound 973]"
measure_unit = "µL/min/mg"
endpoint_value = 52.3


Using known records, supply microsomal CLint at 1 μM for CN(C)c1ccc(C(=O)c2c[nH]c3ccc(Cl)cc23)cc1 [Compound 891]
44.7

Using known records, supply microsomal CLint at 1 μM for O=S(=O)(c1ccc(C(F)(F)F)cc1)n1c(-c2cccc3ccccc23)nc2ccc(Cl)cc21 [Compound 782]
78

Using known records, supply microsomal CLint at 1 μM for O=C(c1ccc(F)c(F)c1)n1c(-c2ccc(-c3ccccc3)cc2)nc2ccc(Cl)cc21 [Compound 644]
48
